Provenance of the data: ChEMBL document CHEMBL3871270

Organism: Homo sapiens
Procedure Summary: Inhibition of 2-methoxy-5-(2,3,4-trimethoxyphenyl)-2,4,6-cycloheptatrien-1-one binding to colchicine binding site of tubulin (unknown origin) at 10 uM by fluorescence assay
The molecules listed here are annotated with their inhibition.

# example entries with known answers
> print(dat)
                            molecule.smiles  experimental.value
1  COc1cc([C@@H]2c3cc4c(cc3[C@H](OC(C)=O)[C@H]3COC(=O)[C@H]23)OCO4)cc(OC)c1OC                 65%
2  COc1cc([C@@H]2c3cc4c(cc3[C@H](O)[C@H]3COC(=O)[C@H]23)OCO4)cc(OC)c1OC                 68%
3  COc1cc(C2=C3C(=O)OC[C@@H]3[C@@H](OC(C)=O)c3cc4c(cc32)OCO4)cc(OC)c1OC                 17%

Answer with the recorded inhibition of COc1ccc([C@@H]2c3cc4c(c(OC)c3C[C@H]3COC(=O)[C@@H]32)OCO4)cc1OC only.
43%

---

The compounds listed here are annotated with their pKd.
Procedure Summary: Inhibition of 2-methoxy-5-(2,3,4-trimethoxyphenyl)-2,4,6-cycloheptatrien-1-one binding to colchicine binding site of tubulin (unknown origin) by fluorescence spectroscopic analysis
Design: species or system Homo sapiens
In plain terms, pKd is the concentration in mol/L turned into minus its base-10 logarithm.

> print(dat)
                                   compound  experimental.value
1  COc1cc([C@@H]2c3cc4c(cc3[C@H](O)[C@H]3COC(=O)[C@H]23)OCO4)cc(OC)c1OC [PODOFILOX]                7.27
2  COc1cc([C@@H]2c3cc4c(cc3[C@H](OC(C)=O)[C@H]3COC(=O)[C@H]23)OCO4)cc(OC)c1OC                7.24

Answer with the recorded pKd of COc1ccc([C@@H]2c3cc4c(c(OC)c3C[C@H]3COC(=O)[C@@H]32)OCO4)cc1OC only.
6.07
